target: T1, human CD1a protein (pool B) (human, UniProt P06126 18-295, limits assumed); test: ELISA, 31.6 µg/ml antibody
T1 construct: Recombinant protein of the ELISA (coated) and the Biacore T200 titration; whole entry named; also called human CD1a pool B; full length CD1a
T1 sequence (P06126 18-295 limits assumed): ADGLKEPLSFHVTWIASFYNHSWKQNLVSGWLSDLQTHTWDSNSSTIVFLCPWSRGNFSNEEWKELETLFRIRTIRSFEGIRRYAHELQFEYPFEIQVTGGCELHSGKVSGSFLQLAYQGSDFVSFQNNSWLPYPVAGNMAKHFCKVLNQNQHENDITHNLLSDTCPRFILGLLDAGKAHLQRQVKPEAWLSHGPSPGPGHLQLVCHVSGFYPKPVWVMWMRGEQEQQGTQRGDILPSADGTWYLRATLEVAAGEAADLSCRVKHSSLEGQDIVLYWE
METRIC NAME: Optical Density (OD)
API: value field is a number in OD; no unit string.

input: Which Optical Density (OD) is listed for 110 (VR12112) (antibody, V domains shown, also called OX110; antibody 110) VH: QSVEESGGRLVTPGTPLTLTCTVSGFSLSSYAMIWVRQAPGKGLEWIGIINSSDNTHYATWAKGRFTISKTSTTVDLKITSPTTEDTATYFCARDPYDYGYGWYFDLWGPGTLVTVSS VL: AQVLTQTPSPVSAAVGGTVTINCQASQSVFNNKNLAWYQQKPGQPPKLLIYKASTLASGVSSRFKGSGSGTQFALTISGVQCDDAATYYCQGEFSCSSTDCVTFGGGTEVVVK ?
output: 1.24

input: Then what about the binder 111 (VR12113) (antibody, V domains shown, also called OX111) VH: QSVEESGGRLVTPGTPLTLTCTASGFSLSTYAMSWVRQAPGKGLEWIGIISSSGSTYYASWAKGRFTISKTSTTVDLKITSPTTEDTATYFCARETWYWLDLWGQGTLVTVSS VL: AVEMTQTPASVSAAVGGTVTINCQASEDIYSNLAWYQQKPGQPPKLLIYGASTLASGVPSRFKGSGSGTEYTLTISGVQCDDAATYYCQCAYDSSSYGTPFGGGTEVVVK ?
output: 1.07

input: Would you kindly repeat that for 116 (VR12117) (antibody, V domains shown, also called OX116) VH: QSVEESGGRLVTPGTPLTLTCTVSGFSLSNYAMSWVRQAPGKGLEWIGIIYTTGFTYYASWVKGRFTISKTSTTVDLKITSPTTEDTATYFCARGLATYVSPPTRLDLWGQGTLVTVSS VL: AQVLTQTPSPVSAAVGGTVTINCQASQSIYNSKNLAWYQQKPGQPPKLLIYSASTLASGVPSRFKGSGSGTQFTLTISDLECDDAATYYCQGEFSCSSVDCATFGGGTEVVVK ?
output: 1.16

Values compiled from patent US20250289893A1.
